- assay_target: brain-purified AD-tau fibrils in HEK293T tau biosensor cells (Homo sapiens, UniProt P10636)
- Sequence (P10636 623-695 limits assumed): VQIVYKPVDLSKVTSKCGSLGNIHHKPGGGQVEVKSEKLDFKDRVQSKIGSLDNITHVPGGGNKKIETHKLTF
- experiment_summary: Tau biosensor cell seeding assay, dose-dependent inhibition with brain-purified AD-tau fibrils
- details: brain-purified AD-tau fibrils; read-out: IC50, inhibition of seeding efficiency in biosensor cells
pIC50: −log10 of the molar value.
observation_type: pIC50

Return reported pIC50. Input compound: `O=C(Nc1cccc(C(F)(F)F)c1)N1c2ccccc2Sc2ccccc21`
> 5.30

###

Listing: viability at 24 h, 10 µM of selected compounds
- experiment_summary: MTT cytotoxicity assay
- Type: cell-based
- details: mouse, Neuro2a cells, Neuro2a; final small molecule concentration 10 µM; 24 h; vehicle = 100% viable; individual replicates; read-out: MTT cell viability, compound alone, Fig. 3f
Please give the number followed by its unit.

# count of solved cases: 3
[[record]]
compound = "O=C(Nc1cccc(C(F)(F)F)c1)N1c2ccccc2Sc2ccccc21 [CNS-17]"
observation_type = "viability at 24 h, 10 µM"
measured_result = "74.1%"

[[record]]
compound = "O=C(O[C@@H]1Cc2c(O)cc(O)cc2O[C@@H]1c1cc(O)c(O)c(O)c1)c1cc(O)c(O)c(O)c1 [EGCG, Epigallocatechin gallate]"
observation_type = "viability at 24 h, 10 µM"
measured_result = "102%"

[[record]]
compound = "O=C1c2ccccc2C(=O)N1c1nc2nccc(-c3ccccc3)n2n1 [CNS-2]"
observation_type = "viability at 24 h, 10 µM"
measured_result = "97.5%"


Return reported viability at 24 h, 10 µM. Input compound: Cc1cc(C)c(NC(=O)Cn2nc3c4c(cccc4c2=O)-c2ccccc2-3)c(C)c1 [CNS-11]
60.2%
